Data credit: patent US20230310428A1

// pIC50 lookup, one value per entry
- targetDesc: various mutants of kinase EGFR (BaF3 cell lines stably transfected with kinase) (Homo sapiens, UniProt P00533, L858R/T790M)
- Construct: expressed in transfected cells; host or cells: BaF3
- Sequence (P00533 25-1210 T790M/L858R): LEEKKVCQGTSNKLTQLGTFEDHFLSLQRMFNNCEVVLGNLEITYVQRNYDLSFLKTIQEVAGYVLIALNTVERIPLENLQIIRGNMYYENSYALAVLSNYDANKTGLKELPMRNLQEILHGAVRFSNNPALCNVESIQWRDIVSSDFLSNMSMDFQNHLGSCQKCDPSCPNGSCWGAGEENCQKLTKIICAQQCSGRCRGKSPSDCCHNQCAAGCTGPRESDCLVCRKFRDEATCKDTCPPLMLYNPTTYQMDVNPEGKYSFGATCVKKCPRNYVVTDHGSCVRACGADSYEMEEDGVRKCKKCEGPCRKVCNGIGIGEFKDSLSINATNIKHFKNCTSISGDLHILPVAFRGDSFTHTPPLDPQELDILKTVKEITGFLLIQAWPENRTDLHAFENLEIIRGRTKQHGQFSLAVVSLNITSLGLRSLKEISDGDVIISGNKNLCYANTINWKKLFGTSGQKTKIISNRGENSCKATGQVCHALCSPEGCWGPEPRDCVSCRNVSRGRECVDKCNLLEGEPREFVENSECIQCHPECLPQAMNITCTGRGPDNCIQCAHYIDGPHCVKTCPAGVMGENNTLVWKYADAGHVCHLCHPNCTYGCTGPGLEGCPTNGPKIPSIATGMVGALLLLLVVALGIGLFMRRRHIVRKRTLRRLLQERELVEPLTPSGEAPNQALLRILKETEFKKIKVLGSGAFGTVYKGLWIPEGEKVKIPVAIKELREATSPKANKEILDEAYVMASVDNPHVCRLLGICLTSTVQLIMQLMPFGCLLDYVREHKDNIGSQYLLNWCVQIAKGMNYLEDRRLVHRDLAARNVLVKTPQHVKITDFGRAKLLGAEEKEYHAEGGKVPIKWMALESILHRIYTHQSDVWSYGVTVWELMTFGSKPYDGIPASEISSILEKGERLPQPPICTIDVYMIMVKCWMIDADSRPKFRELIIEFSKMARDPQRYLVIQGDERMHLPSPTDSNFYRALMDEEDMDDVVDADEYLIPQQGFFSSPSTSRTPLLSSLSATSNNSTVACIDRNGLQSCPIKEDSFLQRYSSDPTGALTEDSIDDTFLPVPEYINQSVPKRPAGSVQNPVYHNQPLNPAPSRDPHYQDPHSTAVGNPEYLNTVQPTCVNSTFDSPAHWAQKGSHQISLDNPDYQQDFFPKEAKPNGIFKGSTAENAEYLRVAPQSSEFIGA
- methodSummary: Growth inhibitory activity of compounds on BaF3 cell lines stably transfected with kinase (MTS, 48 h)
- Format: cell-based
- testSettings: BaF3 cells stably transfected with EGFR L858R/T790M, read-out: IC50, growth inhibition, L858R/T790M
pIC50: −log10 of the molar value.
observationType: pIC50

> print(dat)
                                  smilescode  measuredvalue
 1  CCc1cc(Nc2ncc(Cl)c(Nc3ccc4nccnc4c3N(CC)S(C)(=O)=O)n2)c(OC)cc1N1CCC(N2CCN(C)CC2)CC1         ≥ 7.30
 2  CCN(c1c(Nc2nc(Nc3cc(C)c(N4CCC(N5CCN(C)CC5)CC4)nc3OC)ncc2Br)ccc2nccnc12)S(C)(=O)=O   6.30 to 7.30
 3  CCc1cc(Nc2ncc(F)c(Nc3ccc4nccnc4c3N(C)S(C)(=O)=O)n2)c(OC)nc1N1CCC(N2CCN(C)CC2)CC1         ≥ 7.30
 4  CCc1cc(Nc2ncc(Cl)c(Nc3ccc4nccnc4c3N(C)S(=O)(=O)C3CC3)n2)c(OC)cc1N1CCC(N2CCN(C)CC2)CC1         ≥ 7.30
 5  CCc1cc(Nc2ncc(Br)c(Nc3ccc4nccnc4c3N(C)S(=O)(=O)C(F)(F)F)n2)c(OC(F)(F)F)cc1N1CCC(N2CCN(C)CC2)CC1   5.60 to 6.30
 6  COc1cc(N2CCC(N3CCN(C)CC3)CC2)c(Cc2ccccc2)cc1Nc1ncc(F)c(Nc2ccc3nccnc3c2N(C)S(C)(=O)=O)n1   5.60 to 6.30
 7  COc1cc(N2CCC(N3CCN(C)CC3)CC2)c(CC2CC2)cc1Nc1ncc(F)c(Nc2ccc3nccnc3c2N(C)S(C)(=O)=O)n1         ≥ 7.30
 8  COc1cc(N2CCC(N3CCN(C)CC3)CC2)c(C)cc1Nc1ncc(C)c(Nc2ccc3nccnc3c2N(C)S(C)(=O)=O)n1         ≥ 7.30
 9  CCc1cc(Nc2ncc(C)c(Nc3ccc4nccnc4c3N(C)S(C)(=O)=O)n2)c(OC)nc1N1CCC(N2CCN(C)CC2)CC1         ≥ 7.30
10  COc1ccc(NC(=O)CN(C)C)cc1Nc1ncc(Br)c(Nc2ccc3nccnc3c2N(C)S(C)(=O)=O)n1   6.30 to 7.30
11  CCc1cc(Nc2ncc(Br)c(Nc3ccc4nccnc4c3N(C)S(=O)(=O)C3CC3)n2)c(OC)cc1N1CCC(N2CCN(C)CC2)CC1         ≥ 7.30

====

compounds and their reported pIC50
- targetDesc: various mutants of kinase EGFR (BaF3 cell lines stably transfected with kinase) (Homo sapiens, UniProt P00533, L858R/T790M)
- Construct: expressed in transfected cells; host or cells: BaF3
- methodSummary: Growth inhibitory activity of compounds on BaF3 cell lines stably transfected with kinase (MTS, 48 h)
- Type: cell-based
- testSettings: BaF3 cell line stably transfected with EGFR L858R/T790M, read-out: L858R/ T790M growth inhibitory activity IC50
pIC50: −log10 of the molar value.
observationType: pIC50

> print(dat)
                                   compound  measuredvalue
1  CCc1cc(Nc2nc(Nc3ccc4nccnc4c3N(C)S(C)(=O)=O)c3sccc3n2)c(OC)nc1N1CCC(N2CCN(C)CC2)CC1 [II-1-6]   6.30 to 7.30
2  CCc1cc(Nc2ncc(OC)c(Nc3ccc4nccnc4c3N(C)S(C)(=O)=O)n2)c(OC)cc1N1CCC(N2CCN(C)CC2)CC1 [Compound I-333]         ≥ 7.30
3  CN1CCN(C2CCN(c3ccc(Nc4ncc(Br)c(Nc5ccc6nccnc6c5N(C)S(C)(=O)=O)n4)c(F)c3F)CC2)CC1 [Compound I-353]         ≥ 7.30
4  CCc1cc(Nc2ncc(Br)c(Nc3ccc4nccnc4c3N(C)S(C)(=O)=O)n2)c(OC)cc1F [Compound I-389]   5.60 to 6.30
5  COc1cc(N2CCC(N3CCN(C)CC3)CC2)c(C)cc1Nc1nccc(Nc2ccc3nccnc3c2N(C)S(C)(=O)=O)n1 [Compound I-340]         ≥ 7.30
6  CCc1cc(Nc2nc(Nc3ccc4nccnc4c3N(C)S(C)(=O)=O)c3occc3n2)c(OC(F)(F)F)cc1N1CCC(N2CCN(C)CC2)CC1 [II-1-41]   5.60 to 6.30
7  COc1ccc(N2CCC(O)CC2)cc1Nc1nc(Nc2ccc3nccnc3c2N(C)S(C)(=O)=O)c2sccc2n1 [II-1-45]   6.30 to 7.30

====

- targetDesc: various mutants of kinase EGFR (BaF3 cell lines stably transfected with kinase) (Homo sapiens, UniProt P00533, L858R)
- Construct: expressed in transfected cells; host or cells: BaF3
- Sequence (P00533 25-1210 L858R): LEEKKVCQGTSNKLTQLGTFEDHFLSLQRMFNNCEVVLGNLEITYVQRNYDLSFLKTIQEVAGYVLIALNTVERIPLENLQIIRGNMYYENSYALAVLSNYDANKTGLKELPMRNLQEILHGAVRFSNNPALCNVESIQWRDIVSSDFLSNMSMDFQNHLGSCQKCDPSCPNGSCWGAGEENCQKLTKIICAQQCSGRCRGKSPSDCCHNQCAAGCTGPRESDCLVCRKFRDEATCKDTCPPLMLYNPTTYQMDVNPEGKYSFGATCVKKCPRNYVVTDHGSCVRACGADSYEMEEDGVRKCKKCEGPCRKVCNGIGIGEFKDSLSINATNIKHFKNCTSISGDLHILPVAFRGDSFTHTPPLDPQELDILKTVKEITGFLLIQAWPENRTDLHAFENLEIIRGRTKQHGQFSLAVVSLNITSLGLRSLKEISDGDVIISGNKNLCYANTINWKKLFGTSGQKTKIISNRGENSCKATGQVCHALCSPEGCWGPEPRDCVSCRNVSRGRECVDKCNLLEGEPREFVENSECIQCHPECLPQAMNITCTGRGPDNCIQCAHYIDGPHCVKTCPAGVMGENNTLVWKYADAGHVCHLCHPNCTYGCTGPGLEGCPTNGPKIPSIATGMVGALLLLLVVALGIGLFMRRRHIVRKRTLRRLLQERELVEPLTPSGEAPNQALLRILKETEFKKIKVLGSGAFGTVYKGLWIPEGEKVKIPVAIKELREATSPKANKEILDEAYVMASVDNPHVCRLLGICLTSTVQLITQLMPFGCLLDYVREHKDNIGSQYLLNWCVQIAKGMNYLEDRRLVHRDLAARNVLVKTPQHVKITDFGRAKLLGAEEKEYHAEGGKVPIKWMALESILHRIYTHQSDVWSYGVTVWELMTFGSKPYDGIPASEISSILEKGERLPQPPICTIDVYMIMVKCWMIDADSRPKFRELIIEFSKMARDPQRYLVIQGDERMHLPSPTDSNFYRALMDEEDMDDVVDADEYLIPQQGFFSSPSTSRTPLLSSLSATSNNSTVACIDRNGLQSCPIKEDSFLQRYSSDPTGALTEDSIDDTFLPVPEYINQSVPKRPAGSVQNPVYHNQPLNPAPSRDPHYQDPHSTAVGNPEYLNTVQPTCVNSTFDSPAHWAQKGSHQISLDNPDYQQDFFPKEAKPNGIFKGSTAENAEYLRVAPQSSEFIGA
- methodSummary: Growth inhibitory activity of compounds on BaF3 cell lines stably transfected with kinase (MTS, 48 h)
- Assay type: cell-based
- testSettings: BaF3 cells stably transfected with EGFR L858R, read-out: IC50, growth inhibition, L858R
pIC50: −log10 of the molar value.
Readings of pIC50 for the listed molecules
observationType: pIC50

> print(dat)
                                   molecule  measuredvalue
1  COc1cc(N2CCC(N(C)C)C2)c(C)cc1Nc1ncc(Br)c(Nc2ccc3nccnc3c2N(C)S(C)(=O)=O)n1 (stereo not drawn)         ≥ 7.30
2  CCc1cc(Nc2ncc(C(F)(F)F)c(Nc3ccc4nccnc4c3N(C)S(C)(=O)=O)n2)c(OC(F)(F)F)cc1N1CCC(N2CCN(C)CC2)CC1   6.30 to 7.30
3  COc1cc(N2CCC(N3CCN(C)CC3)CC2)c(CC2CC2)cc1Nc1ncc(C(F)(F)F)c(Nc2ccc3nccnc3c2N(C)S(C)(=O)=O)n1   6.30 to 7.30
4  COc1cc(N2CCC(N3CCN(C)CC3)CC2)c(Cc2ccccc2)cc1Nc1ncc(Br)c(Nc2ccc3nccnc3c2N(C)S(C)(=O)=O)n1   6.30 to 7.30
5  CCc1cc(Nc2ncc(Cl)c(Nc3ccc4nccnc4c3N(C)S(=O)(=O)C3CC3)n2)c(OC(F)(F)F)cc1N1CCC(N2CCN(C)CC2)CC1   6.30 to 7.30
6  CCc1cc(Nc2ncc(Cl)c(Nc3ccc4nccnc4c3N(C)S(C)(=O)=O)n2)c(OC)cc1N1CCC(N2CCN(C)CC2)CC1         ≥ 7.30

====

Known IC50 of a selection of compounds
- targetDesc: various mutants of kinase EGFR (BaF3 cell lines stably transfected with kinase) (Homo sapiens, UniProt P00533, T790M, form not given)
- Construct: other: BaF3 cells stably transfected with EGFR Δ19Del/T790M; MTS, 48 h; other: BaF3 cell line stably transfected with EGFR Δ19Del/T790M; MTS, 48
- Sequence (P00533 with tags, fused parts or gaps DEL746-750/T790M, form open): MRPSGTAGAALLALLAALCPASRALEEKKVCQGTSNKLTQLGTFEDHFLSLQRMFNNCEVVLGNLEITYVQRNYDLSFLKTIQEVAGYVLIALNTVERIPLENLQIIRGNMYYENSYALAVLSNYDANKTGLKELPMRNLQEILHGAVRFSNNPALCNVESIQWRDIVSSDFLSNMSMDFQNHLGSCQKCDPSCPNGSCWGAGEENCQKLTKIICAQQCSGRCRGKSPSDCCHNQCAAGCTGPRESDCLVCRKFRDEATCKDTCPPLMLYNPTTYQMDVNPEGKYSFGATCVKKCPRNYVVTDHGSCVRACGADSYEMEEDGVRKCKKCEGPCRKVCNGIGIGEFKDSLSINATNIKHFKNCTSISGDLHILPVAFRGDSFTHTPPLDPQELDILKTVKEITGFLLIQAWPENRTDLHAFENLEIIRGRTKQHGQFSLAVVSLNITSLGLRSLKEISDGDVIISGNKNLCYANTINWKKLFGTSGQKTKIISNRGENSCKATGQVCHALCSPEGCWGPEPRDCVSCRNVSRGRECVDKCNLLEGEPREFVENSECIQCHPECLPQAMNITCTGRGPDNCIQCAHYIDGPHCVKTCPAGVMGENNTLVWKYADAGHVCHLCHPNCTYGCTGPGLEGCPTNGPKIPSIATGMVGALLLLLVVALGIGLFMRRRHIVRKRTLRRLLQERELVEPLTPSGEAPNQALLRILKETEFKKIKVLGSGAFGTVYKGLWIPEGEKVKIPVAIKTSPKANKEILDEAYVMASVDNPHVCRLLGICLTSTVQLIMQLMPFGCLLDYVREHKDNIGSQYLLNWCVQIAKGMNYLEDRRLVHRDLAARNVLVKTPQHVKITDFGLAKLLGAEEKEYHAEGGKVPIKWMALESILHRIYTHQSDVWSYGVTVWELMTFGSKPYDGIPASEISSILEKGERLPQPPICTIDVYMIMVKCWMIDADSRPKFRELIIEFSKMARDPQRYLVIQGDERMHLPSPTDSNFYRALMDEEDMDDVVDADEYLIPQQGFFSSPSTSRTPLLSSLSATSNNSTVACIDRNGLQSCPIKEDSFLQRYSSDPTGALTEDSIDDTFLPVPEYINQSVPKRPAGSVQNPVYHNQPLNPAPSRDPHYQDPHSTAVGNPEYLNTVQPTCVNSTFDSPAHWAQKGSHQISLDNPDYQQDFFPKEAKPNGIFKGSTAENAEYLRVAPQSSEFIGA
- methodSummary: Growth inhibitory activity of compounds on BaF3 cell lines stably transfected with kinase (MTS, 48 h)
- Format: cell-based
- testSettings: BaF3 cells stably transfected with EGFR Δ19Del/T790M, read-out: IC50, growth inhibition, Δ19Del/T790M
observationType: IC50

> print(dat)
                                   compound  observationtype   measuredvalue
1  CCc1cc(Nc2ncc(Cl)c(Nc3ccc4nccnc4c3N(CC)S(C)(=O)=O)n2)c(OC(F)(F)F)cc1N1CCC(N2CCN(C)CC2)CC1             IC50  0.05 to 0.5 µM
2  COc1cc(N2CCC(N3CCN(C)CC3)CC2)c(C)cc1Nc1ncc(Br)c(Nc2ccc3nccnc3c2N(C2CC2)S(C)(=O)=O)n1             IC50       ≤ 0.05 µM
3  COc1cc(N2CCC(N(C)C)C2)c(C)cc1Nc1ncc(Cl)c(Nc2ccc3nccnc3c2N(C)S(=O)(=O)C(F)(F)F)n1 (stereo not drawn)             IC50   0.5 to 2.5 µM

====

- targetDesc: various mutants of kinase EGFR (BaF3 cell lines stably transfected with kinase) (Homo sapiens, UniProt P00533, T790M, form not given)
- Construct: other: BaF3 cells stably transfected with EGFR Δ19Del/T790M; MTS, 48 h; other: BaF3 cell line stably transfected with EGFR Δ19Del/T790M; MTS, 48
- methodSummary: Growth inhibitory activity of compounds on BaF3 cell lines stably transfected with kinase (MTS, 48 h)
- Format: cell-based
- testSettings: BaF3 cells stably transfected with EGFR Δ19Del/T790M, read-out: IC50, growth inhibition, Δ19Del/T790M
Listed below: IC50 values for each entry.
observationType: IC50

> print(dat)
                                    compound   measuredvalue
 1  COc1cc(N2CCC(N3CCN(C)CC3)CC2)c(C2CC2)cc1Nc1ncc(C2CC2)c(Nc2ccc3nccnc3c2N(C)S(C)(=O)=O)n1         ≤ 50 nM
 2  COc1cc(N2CCC(N(C)C)CC2)c(C)cc1Nc1ncc(Br)c(Nc2ccc3nccnc3c2N(C)S(C)(=O)=O)n1         ≤ 50 nM
 3  CCc1cc(Nc2ncc(Cl)c(Nc3ccc4nccnc4c3N(C)S(=O)(=O)CC)n2)c(OC)cc1N1CCN(C)CC1         ≤ 50 nM
 4  Cc1ccc(Nc2ncc(Br)c(Nc3ccc4nccnc4c3N(C)S(C)(=O)=O)n2)cn1         ≤ 50 nM
 5  CN1CCN(c2ccc(Nc3ncc(Br)c(Nc4ccc5nccnc5c4N(C)S(C)(=O)=O)n3)cc2)CC1         ≤ 50 nM
 6  COc1cc(N2CCN(C)CC2)c(C)cc1Nc1ncc(Cl)c(Nc2ccc3nccnc3c2N(C)S(=O)(=O)C(F)(F)F)n1  500 to 2500 nM
 7  CCc1cc(Nc2ncc(Br)c(Nc3ccc4nccnc4c3N(C)S(C)(=O)=O)n2)ccc1N1CCC(N2CCN(C)CC2)CC1         ≤ 50 nM
 8  CCc1cc(Nc2ncc(Br)c(Nc3ccc4nccnc4c3N(C)S(=O)(=O)C(C)C)n2)c(OC)cc1N1CCC(N(C)C)C1 (stereo not shown)    50 to 500 nM
 9  CCN(c1c(Nc2nc(Nc3ccc(N4CCC(N5CCN(C)CC5)CC4)nc3OC)ncc2Br)ccc2nccnc12)S(C)(=O)=O    50 to 500 nM
10  COc1cc(N2CCC(N(C)C)CC2)c(C)cc1Nc1ncc(C2CC2)c(Nc2ccc3nccnc3c2N(C)S(C)(=O)=O)n1         ≤ 50 nM
11  CCc1cc(Nc2ncc(Br)c(Nc3ccc4nccnc4c3N(C)S(=O)(=O)C(C)C)n2)c(OC)cc1N1CCC(N(C)C)CC1         ≤ 50 nM
12  CCc1cc(Nc2ncc(Cl)c(Nc3ccc4nccnc4c3N(C)S(=O)(=O)C(F)(F)F)n2)c(OC)cc1N1CCC(N(C)C)CC1    50 to 500 nM
13  CN(c1c(Nc2nc(Nc3cccc(N4CCC(O)CC4)c3)ncc2Br)ccc2nccnc12)S(C)(=O)=O    50 to 500 nM
